Molecular target: ATX (human His-tagged) (Homo sapiens (Human), UniProt Q13822)
The reader will find reported log10(IC50) values listed item by item below.
Each number you see is log10 of IC50, and the unit inside the log is nM.

INPUT: Hi! What's the reported log10(IC50) for O=C(/C=C/c1ccncc1)N1CC[C@@H]2CN(C(=O)c3ccc4[nH]nnc4c3)C[C@@H]2CC1 [Example 15.28] on ATX (human His-tagged) (Homo sapiens (Human), UniProt Q13822)?
OUTPUT: 3.65

INPUT: Hi! What's the reported log10(IC50) for CC1C(COC(=O)N2C[C@@H]3CN(C(=O)c4ccc5[nH]nnc5c4)C[C@@H]3C2)[C@H]2CC[C@@H]1C2 (stereo partly shown) [Example 4.31] on ATX (human His-tagged) (Homo sapiens (Human), UniProt Q13822)?
OUTPUT: 3.26

INPUT: Hi! What's the reported log10(IC50) for O=C(/C=C/c1ccc(OC(F)(F)F)cc1)N1C[C@@H]2CN(C(=O)NCc3c[nH]nn3)C[C@@H]2C1 [Example 9.02] on ATX (human His-tagged) (Homo sapiens (Human), UniProt Q13822)?
OUTPUT: 3.20

Others:
INPUT: Hi! What's the reported log10(IC50) for O=C(COc1ccc(C(F)(F)F)cc1Cl)N1CC[C@@H]2CN(C(=O)c3ccc4[nH]nnc4c3)C[C@@H]2CC1 [Example 1.38] on ATX (human His-tagged) (Homo sapiens (Human), UniProt Q13822)?
OUTPUT: 1.00

INPUT: Hi! What's the reported log10(IC50) for CC(C)c1cc(Cl)ccc1OCC(=O)N1C[C@@H]2CN(C(=O)c3ccc4[nH]nnc4c3)C[C@H]2C1 [Example 19.10] on ATX (human His-tagged) (Homo sapiens (Human), UniProt Q13822)?
OUTPUT: 0.78

INPUT: Hi! What's the reported log10(IC50) for O=C(OCc1ccc(OCC(F)(F)F)cc1)N1CC[C@@H]2CN(C(=O)c3ccc4[nH]nnc4c3)C[C@@H]2CC1 [Example 1.48] on ATX (human His-tagged) (Homo sapiens (Human), UniProt Q13822)?
OUTPUT: 0.88

----------
Target: ATX (human His-tagged) (Homo sapiens (Human), UniProt Q13822)
observed_property: log10 IC50 (log10 of the value in nM)
Each number you see is log10 of IC50, and the unit inside the log is nM.

Recorded log10 IC50, per entry:
INPUT: Hi! What's the reported log10 IC50 for O=C(COc1ccccc1C(F)(F)F)N1C[C@@H]2CN(C(=O)c3ccc4[nH]nnc4c3)C[C@H]2C1 on ATX (human His-tagged) (Homo sapiens (Human), UniProt Q13822)?
OUTPUT: 2.01

INPUT: Hi! What's the reported log10 IC50 for O=C(OCc1cc(Cl)cc(Cl)c1)N1C[C@H]2CN(Cc3ccc4[nH]ncc4c3)C[C@H]2C1 on ATX (human His-tagged) (Homo sapiens (Human), UniProt Q13822)?
OUTPUT: 3.45

INPUT: Hi! What's the reported log10 IC50 for O=C(/C=C/c1ccc(OC(F)(F)F)cc1)N1C[C@@H]2CN(C(=O)c3ccc4[nH]nnc4c3)C[C@@H]2C1 on ATX (human His-tagged) (Homo sapiens (Human), UniProt Q13822)?
OUTPUT: 1.41

INPUT: Hi! What's the reported log10 IC50 for O=C(OCc1cc(Cl)cc(Cl)c1)N1CC[C@@H]2CN(C(=O)c3ccc4[nH]nnc4c3)C[C@@H]2C1 [Example 10A] on ATX (human His-tagged) (Homo sapiens (Human), UniProt Q13822)?
OUTPUT: 1.56

INPUT: Hi! What's the reported log10 IC50 for O=C(/C=C/c1cccc(OC(F)(F)F)c1)N1C[C@@H]2CN(C(=O)c3ccc4[nH]nnc4c3)C[C@H]2C1 on ATX (human His-tagged) (Homo sapiens (Human), UniProt Q13822)?
OUTPUT: 1.72

Others:
INPUT: Hi! What's the reported log10 IC50 for O=C(/C=C/c1ccc(Cl)c(Cl)c1)N1CC[C@@H]2CN(C(=O)c3ccc4[nH]nnc4c3)C[C@@H]2CC1 on ATX (human His-tagged) (Homo sapiens (Human), UniProt Q13822)?
OUTPUT: 1.58

INPUT: Hi! What's the reported log10 IC50 for O=C(OCc1cc(Cl)cc(Cl)c1)N1C[C@@H]2CN(C(=O)c3ccc4[nH]nnc4c3)C[C@@H]2C1 on ATX (human His-tagged) (Homo sapiens (Human), UniProt Q13822)?
OUTPUT: 1.40

----------
Target: ATX (human His-tagged) (Homo sapiens (Human))
IC50 less than 100 nM is true; IC50 greater than or equal to 100 nM is false.

Some entries whose results are on file:
INPUT: Answer whether the molecule O=C(OCCC12CC3CC(CC(C3)C1)C2)N1C[C@@H]2CN(C(=O)c3ccc4[nH]nnc4c3)C[C@@H]2C1 [Example 4.17] has IC50 strictly less than 100 nM
OUTPUT: false

INPUT: Answer whether the molecule O=C(CCc1cc(Cl)cc(C(F)(F)F)c1)N1CC[C@@H]2CN(C(=O)c3ccc4[nH]nnc4c3)C[C@@H]2CC1 [Example 17.17] has IC50 strictly less than 100 nM
OUTPUT: true

INPUT: Answer whether the molecule CN(Cc1cnn[nH]1)C(=O)N1C[C@H]2CN(C(=O)CCc3ccc(OC(F)(F)F)cc3)C[C@H]2C1 [Example 15.60] has IC50 strictly less than 100 nM
OUTPUT: false

INPUT: Answer whether the molecule O=C(OCc1ccc(F)c(OC(F)(F)F)c1)N1C[C@@H]2CN(C(=O)c3ccc4[nH]nnc4c3)C[C@@H]2C1 [Example 4.28] has IC50 strictly less than 100 nM
OUTPUT: false

INPUT: Answer whether the molecule O=C(c1cnc(OCC(F)(F)F)c(C2CC2)c1)N1C[C@@H]2CN(C(=O)c3ccc4[nH]nnc4c3)C[C@H]2C1 [Example 19.42] has IC50 strictly less than 100 nM
OUTPUT: true

INPUT: Answer whether the molecule O=C(CCc1ccc(-c2ccncc2)cc1)N1C[C@@H]2CN(C(=O)c3ccc4[nH]nnc4c3)C[C@H]2C1 [Example 17.11] has IC50 strictly less than 100 nM
OUTPUT: true

INPUT: Answer whether the molecule CC(C)Oc1cc(C(=O)N2C[C@@H]3CN(C(=O)[C@@H]4CCc5[nH]nnc5C4)C[C@H]3C2)nc2ccccc12 [Example 19.25] has IC50 strictly less than 100 nM
OUTPUT: true

INPUT: Answer whether the molecule O=C(CCc1ccc(OC(F)(F)F)cc1)N1CC[C@@H]2CN(C(=O)NCCc3cnn[nH]3)C[C@@H]2CC1 [Example 17.14] has IC50 strictly less than 100 nM
OUTPUT: false

INPUT: Answer whether the molecule O=C(OCc1cc(Cl)cc(Cl)c1)N1C[C@@H]2CN(C(=O)N3CCc4[nH]nnc4C3)C[C@@H]2C1 [Example 8] has IC50 strictly less than 100 nM
OUTPUT: false

INPUT: Answer whether the molecule O=C(COc1ccc(OC(F)(F)F)cc1Br)N1C[C@@H]2CN(C(=O)c3ccc4[nH]nnc4c3)C[C@H]2C1 [Example 19.01] has IC50 strictly less than 100 nM
OUTPUT: true

Others:
INPUT: Answer whether the molecule O=C(c1cc2ccccc2c(OCC(F)(F)F)n1)N1C[C@@H]2CN(C(=O)[C@@H]3CCc4[nH]nnc4C3)C[C@H]2C1 [Example 19.28] has IC50 strictly less than 100 nM
OUTPUT: true

INPUT: Answer whether the molecule O=C(CCc1cc(F)cc(C(F)(F)F)c1)N1C[C@@H]2CN(C(=O)c3ccc4[nH]nnc4c3)C[C@@H]2C1 [Example 15.03] has IC50 strictly less than 100 nM
OUTPUT: false

----------
Target: ATX (human His-tagged) (Homo sapiens (Human), UniProt Q13822)
IC50 less than 0.04 µM is 1 (yes); IC50 greater than or equal to 0.04 µM is 0 (no).

Some entries whose results are on file:
INPUT: Answer whether the compound O=C(CCc1cc(Cl)cc(Cl)c1)N1C[C@@H]2CN(C(=O)c3ccc4[nH]nnc4c3)C[C@@H]2C1 has IC50 strictly less than 0.04 µM
OUTPUT: 1 (yes)

INPUT: Answer whether the compound Cc1cc(COC(=O)N2C[C@@H]3CN(C(=O)c4ccc5[nH]nnc5c4)C[C@H]3C2)c(C(C)C)cc1C#N has IC50 strictly less than 0.04 µM
OUTPUT: 1 (yes)

INPUT: Answer whether the compound COc1cc(/C=C/C(=O)N2C[C@@H]3CN(C(=O)c4ccc5[nH]nnc5c4)C[C@H]3C2)cc(OC(F)(F)F)c1 has IC50 strictly less than 0.04 µM
OUTPUT: 1 (yes)

INPUT: Answer whether the compound N#Cc1ccc(/C=C/C(=O)N2CC[C@@H]3CN(Cc4ccc5[nH]nnc5c4)C[C@@H]3CC2)cc1 has IC50 strictly less than 0.04 µM
OUTPUT: 0 (no)

Others:
INPUT: Answer whether the compound O=C(OCc1cc(Cl)cc(Cl)c1)N1C[C@@H]2CN(C(=O)c3cc4c(cn3)[nH]c3ccccc34)C[C@@H]2C1 has IC50 strictly less than 0.04 µM
OUTPUT: 0 (no)

All values here come from patent US10669268B2.
